test: Probe fluorescence ratio response to linolenic acid relative to ADIFAB2; assay type: binding; conditions: response relative to ADIFAB2
METRIC: DR/DR LNA
The response must contain the number and no unit.

Answered cases to consult:
>>> measured_value("104T 115A 74F 72A (protein, listed as Rattus norvegicus, PEPTIDE (1)...(131) wild-type rat intestinal fatty acid binding protein) AFDGTWKVDRNENYEKFMEKMGINVVKRKLGAHDNLKLTITQEGNKFTVKESSNFRNIDVVFELGVDFAYSAAFGTELTGTWTMEGNKLVGKFKRVDNGKELITVREISGNELIATYTYEGVEAKRIFKKE")
2.206
>>> measured_value("14I 18V 31W 73I 117V 72A (protein, listed as Rattus norvegicus, PEPTIDE (1)...(131) wild-type rat intestinal fatty acid binding protein) AFDGTWKVDRNENIEKFVEKMGINVVKRKLWAHDNLKLTITQEGNKFTVKESSNFRNIDVVFELGVDFAYSAIDGTELTGTWTMEGNKLVGKFKRVDNGKELIAVREISGNELIQTVTYEGVEAKRIFKKE")
1.495
>>> measured_value("36I1, 72A (protein, listed as Rattus norvegicus, PEPTIDE (1)...(131) wild-type rat intestinal fatty acid binding protein) AFDGTWKVDRNENYEKFMEKMGINVVKRKLGAHDNIKLTITQEGNKFTVKESSNFRNIDVVFELGVDFAYSAADGTELTGTWTMEGNKLVGKFKRVDNGKELIAVREISGNELIQTYTYEGVEAKRIFKKE")
1.13
>>> measured_value("14R 18L 73L 117D 72A (protein, listed as Rattus norvegicus, PEPTIDE (1)...(131) wild-type rat intestinal fatty acid binding protein) AFDGTWKVDRNENREKFLEKMGINVVKRKLGAHDNLKLTITQEGNKFTVKESSNFRNIDVVFELGVDFAYSALDGTELTGTWTMEGNKLVGKFKRVDNGKELIAVREISGNELIQTDTYEGVEAKRIFKKE")
1.790
>>> measured_value("34G, 72A (protein, listed as Rattus norvegicus, PEPTIDE (1)...(131) wild-type rat intestinal fatty acid binding protein) AFDGTWKVDRNENYEKFMEKMGINVVKRKLGAHGNLKLTITQEGNKFTVKESSNFRNIDVVFELGVDFAYSAADGTELTGTWTMEGNKLVGKFKRVDNGKELIAVREISGNELIQTYTYEGVEAKRIFKKE")
0.29
>>> measured_value("14E, 72A (protein, listed as Rattus norvegicus, PEPTIDE (1)...(131) wild-type rat intestinal fatty acid binding protein) AFDGTWKVDRNENEEKFMEKMGINVVKRKLGAHDNLKLTITQEGNKFTVKESSNFRNIDVVFELGVDFAYSAADGTELTGTWTMEGNKLVGKFKRVDNGKELIAVREISGNELIQTYTYEGVEAKRIFKKE")
0.61

The value of DR/DR LNA measured for the molecule 74T 72A 73F (protein, listed as Rattus norvegicus, PEPTIDE (1)...(131) wild-type rat intestinal fatty acid binding protein) AFDGTWKVDRNENYEKFMEKMGINVVKRKLGAHDNLKLTITQEGNKFTVKESSNFRNIDVVFELGVDFAYSAFTGTELTGTWTMEGNKLVGKFKRVDNGKELIAVREISGNELIQTYTYEGVEAKRIFKKE turned out to be 1.635

The value of DR/DR LNA measured for the molecule 73Y, 72A (protein, listed as Rattus norvegicus, PEPTIDE (1)...(131) wild-type rat intestinal fatty acid binding protein) AFDGTWKVDRNENYEKFMEKMGINVVKRKLGAHDNLKLTITQEGNKFTVKESSNFRNIDVVFELGVDFAYSAYDGTELTGTWTMEGNKLVGKFKRVDNGKELIAVREISGNELIQTYTYEGVEAKRIFKKE turned out to be 1.603

The value of DR/DR LNA measured for the molecule 78T1, 72A (protein, listed as Rattus norvegicus, PEPTIDE (1)...(131) wild-type rat intestinal fatty acid binding protein) AFDGTWKVDRNENYEKFMEKMGINVVKRKLGAHDNLKLTITQEGNKFTVKESSNFRNIDVVFELGVDFAYSAADGTETTGTWTMEGNKLVGKFKRVDNGKELIAVREISGNELIQTYTYEGVEAKRIFKKE turned out to be 1.20

The value of DR/DR LNA measured for the molecule 72E (protein, listed as Rattus norvegicus, PEPTIDE (1)...(131) wild-type rat intestinal fatty acid binding protein) AFDGTWKVDRNENYEKFMEKMGINVVKRKLGAHDNLKLTITQEGNKFTVKESSNFRNIDVVFELGVDFAYSEADGTELTGTWTMEGNKLVGKFKRVDNGKELIAVREISGNELIQTYTYEGVEAKRIFKKE turned out to be 0.36

The value of DR/DR LNA measured for the molecule 38V2, 72A (protein, listed as Rattus norvegicus, PEPTIDE (1)...(131) wild-type rat intestinal fatty acid binding protein) AFDGTWKVDRNENYEKFMEKMGINVVKRKLGAHDNLKVTITQEGNKFTVKESSNFRNIDVVFELGVDFAYSAADGTELTGTWTMEGNKLVGKFKRVDNGKELIAVREISGNELIQTYTYEGVEAKRIFKKE turned out to be 1.67
